assay: NCI Yeast Anticancer Drug Screen. Data for the mlh1 rad18 strain (AID 175); settings: S. cerevisiae mlh1 rad18 strain growth inhibition; at 50.0 µM; stronger effect = higher value
The panel holds about 79,000 compounds, 15% with a hit somewhere; the sample as a whole holds those more often.
reported metric: growth inhibition (%)
Supply the numeric figure in %, leaving out any unit text.

Measured growth inhibition, `CC1=NC=C(O)c2ccccc2O1` : 21.4

Per the records, this molecule ( `O=C(Cl)c1cc(Cl)cc(Cl)c1Br` ) has growth inhibition equal to 25.7

Consider `O=C(Nc1ccc(Nc2ccc(NC(=O)c3ccccc3)c3c2C(=O)c2ccccc2C3=O)c2c1C(=O)c1ccccc1C2=O)c1ccccc1` . Its measured growth inhibition is -9.1

Recorded growth inhibition (molecule `CN(C)CCC(/C=C/c1ccccc1)=N\Nc1ccccc1` ): 36.5

growth inhibition recorded for this molecule, `Clc1ccccc1C=Nc1ccccc1` , is 34

Lab note: C1CCC2C(C1)CCCC2NC1=NCCO1 (stereo unspecified) gave growth inhibition of 12.3

Reported growth inhibition for `O=C(O)c1cc([N+](=O)[O-])cc(P(=O)(O)O)c1` was 12.9

For record `COc1cc(=O)n(-c2ccccc2)nc1C#N` the listed growth inhibition is -1.2

// field: growth inhibition; key: COC1(OC)c2no[n+]([O-])c2CCC1O (stereo unspecified) ; value = -4.45

Entry CC1CCCC1N (stereo unspecified) ; growth inhibition = -7.5

# molecule `Cc1cc(Br)ncc1[N+](=O)[O-]` ; its growth inhibition = -7.6

Lab note: measured growth inhibition of `N#CCC(CC#N)C(c1cccc2ccccc12)c1cccc2ccccc12` was -1.7

Query `CC(=O)Oc1cccc2c1C(=O)c1ccccc1C2=O` yields growth inhibition of -10

Recorded growth inhibition (molecule `O=[N+]([O-])c1cc(Br)c2ccccc2c1` ): 15.1

Reported growth inhibition for `O=C1/C(=C/c2cccc3ccccc23)Cc2ccccc21` was 7.7

growth inhibition reported for this molecule `Cn1c2c(c3ccccc31)=NN1CCN=C1N=2` : 4

The measured growth inhibition associated with `CCCCc1ccc(NC(=O)c2cccnc2)cc1` reads 27.6

Lab note: measured growth inhibition of `C1CCC2(CC1)SCCS2` was -10.4

Data point: `CCN(CC)C(=O)c1cccc(C(=O)N(CC)CC)n1` ; growth inhibition = 24.7

Kindly note the recorded growth inhibition for `CC(C)CNC(=O)Cn1c2c(c3ccccc31)CCCC2` , which is -10.8

The reported value for `CCCCN(CCCC)c1c([N+](=O)[O-])c(=O)nc2ccccn12` in terms of growth inhibition is 37.9

Item: `COc1ccc(NC(=O)CC(=O)N/N=C/c2ccc(N(CCC#N)S(=O)(=O)c3ccccc3)cc2)cc1` | growth inhibition: -2.75

Per the record, CCCNC1CC(n2cc(C)c(=O)[nH]c2=O)OC1CO (stereo unspecified) has growth inhibition of -26.8

What the record says about `CCOC(=O)N1CCN(P(=O)(c2ccccc2)N2CCN(C(=O)OCC)CC2)CC1` : growth inhibition is 9.85

// growth inhibition value for Cc1ccc(S(=O)(=O)NN=C2CCS(=O)CC2)cc1 (stereo unspecified) : -28.5

// `COc1ccc(NC2=CC(=O)c3ccccc3C2=O)cc1` : growth inhibition value = -7.1
